Just for reference, patent US20240327502A1 is where these values come from.

Target: T1, Processed stabilized hMPV PreF trimer (115BV) (human metapneumovirus, strain B2)
T1 construct: also called Processed hMPV PreF trimer; processed PreF
Assay: BLI, ratio to unprocessed PreF trimer
Reported processed/unprocessed PreF trimer binding ratio values for the following binders.

>  <binder>
M3A08 (antibody, V domains shown, IgG) VH: EVQLVESGGGLVKPGGSLRLSCAASGFSITSYGMHWVRQAPGKGLEWVSSISSSSSYISYRDSVKGRFTVSRDNAGNSLSLQMNSLRGEDTAVYHCARDAGLVPPWMDSWGQGTLVIVSS VL: QSVLTQPPSVSGAAGQRVTISCTGSSSNLGTGYDVHWYRQQPGTAPKLIMFGNTNRPSGVPGRFSGSRSGTSASLAITGLQADDEADYYCQSYDSSLGGLVFGGGTKLTVL

>  <recorded value>
0.59

$$$$

Next up:
Please give measured processed/unprocessed PreF trimer binding ratio of the following entry: M3D10 (antibody, V domains shown, IgG) VH: QVQLQESGPGLVKPSETLSLTCTVSGGSVSTYYWTWIRQPPGKGLDWIGYIYHNGNINYNPSLKSRVTMSVDTSKNQFSLKLTSVTAADTALYYCATVSFIGYSLYYFDRWGQGTLVTVSS VL: DIQMTQSPSSLSASVGDRVTITCRASQNIASFLNWYQQRPGKAPDLLIYAASTLQTGVPSRFSGSGSGTDFTLAISSLQPEDFATYYCQQSYNTPFTFGQGTKLEIK
1.04
